Tested on: LXFL 529
Assay: NCI tumour cell line growth inhibition, 48 h
Activity calls are given as the source filed them. Rule as the data show it: active = GI50 up to about 1.1 µM and inactive = higher.
observedProperty: GI50

Report measured GI50; entry is "O=c1cccccc1NCCCNc1cccccc1=O"
> 100 µM (inactive)

Report measured GI50; entry is CCO/S(=N/S(=O)(=O)c1ccccc1)c1ccccc1[N+](=O)[O-] (centres undefined)
> 100 µM (inactive)

Report measured GI50; entry is Cc1ccc(-c2nc3ccccc3c(=O)n2NCC2(O)OCC(O)C(O)C2O)cc1 (centres undefined)
> 100 µM (inactive)

Report measured GI50; entry is "COc1ccc(/C=N/N=C(\N)NO)c(OC)c1"
8.81 µM (inactive)

Report measured GI50; entry is COC(=O)C1(O)c2ccccc2N=C2C1CCN2C (centres undefined)
> 100 µM (inactive)

Report measured GI50; entry is CC(C)(C)C1CCP(=O)(c2ccccc2)CC1 (centres undefined)
> 100 µM (inactive)

Report measured GI50; entry is "C/C(CC(=O)Nc1ccc(Cl)c(Cl)c1)=N/NC(=O)C[n+]1ccccc1"
66.7 µM (inactive)

Report measured GI50; entry is COc1cc(C(C)c2cc3c(cc2OCCO)OCO3)cc(OC)c1OC (centres undefined)
2.77 µM (inactive)

Report measured GI50; entry is "COc1cc(/C=C(\C#N)C(=O)c2ccccc2)cc(OC)c1OC"
> 100 µM (inactive)
